METHOD DESCRIPTION: qHTS of pediatric cancer cell lines to identify multiple opportunities for drug repurposing: Primary screen for SK-N-MC cells (AID 1347093)
CONDITIONS: SK-N-MC viability, CellTiter-Glo luminescence, 48 h; series mostly up to 46 µM
Protocol: Drug repurposing or repositioning has been offered as a strategy for drug development in oncology programs. […] [1] Shen, M et al. Quantitative high-throughput phenotypic screening of pediatric cancer cell lines identifies multiple opportunities for drug repurposing. […] Cells were assayed in growth media at a density of 500-1,000 cells/well. […] After a 15 min incubation at room temperature, samples were analyzed for luminescence intensity using a ViewLux High-throughput CCD imager equipped with clear filters.
Inconclusive results are not listed. Activity calls are given as the source filed them. Calls come from the whole dose curve; as a rule, active = well fitted cell-killing curve with a large enough effect; inconclusive = small, poorly fitted or top-dose-only effect; inactive = no such curve, though single readings can be large or run the other way.
I would appreciate it if you answered using one of these outcomes: TRUE = active, FALSE = inactive

These recorded examples may help you get a feel for the data.
COMPOUND	LABEL CLASS
Cc1ccccc1-n1c(Cn2nc(-c3cccc(O)c3)c3c(N)ncnc32)nc2cccc(C)c2c1=O	TRUE
COc1cc2nccc(Oc3ccc(NC(=O)Nc4ccc(F)cc4F)c(F)c3)c2cc1OC	TRUE
Cc1nc(NC(=O)N2CCC[C@@H]2C(N)=O)sc1-c1csc(C(C)(C)C)n1	TRUE
CCCC1OC2C[C@@H]3[C@H]4CCC5=CC(=O)C=C[C@]5(C)[C@H]4C(O)C[C@]3(C)[C@]2(C(=O)CO)O1 (some centres undefined)	TRUE
CC1C(=O)OC2C(O)C34C5CC(C(C)(C)C)C36C(OC(=O)C6O)OC4(C(=O)O5)C12O (centres undefined)	TRUE

Any idea what this test logged for Cc1cc(CS(=O)(=O)c2ccccc2)cc(OCc2ccc(CN3CCC[C@H]3CO)cc2)c1 ?
TRUE

Now consider COc1nccc(-c2c(-c3ccc(F)cc3)ncn2C2CCC(O)CC2)n1 (centres undefined) and answer again.
FALSE

Now consider Cc1ccc2c(=O)c3cccc(CC(=O)O)c3oc2c1C and answer again.
TRUE

Now consider O=C1C(CCC(O)c2ccc(F)cc2)C(c2ccc(O)cc2)N1c1ccc(F)cc1 (centres undefined) and answer again.
FALSE

Now consider COc1cc([C@@H]2c3cc4c(cc3[C@@H](O[C@@H]3O[C@@H]5CO[C@@H](C)O[C@@H]5[C@H](O)[C@@H]3O)[C@H]3COC(=O)[C@H]23)OCO4)cc(OC)c1O and answer again.
TRUE

Now consider CC=C(C(=CC)c1ccc(O)cc1)c1ccc(O)cc1 and answer again.
TRUE

Now consider COc1c(C)cnc(Cn2cnc3c(Cl)nc(N)nc32)c1C and answer again.
TRUE

Now consider CC1CNc2c(cccc2S(=O)(=O)N[C@@H](CCCN=C(N)N)C(=O)N2CC[C@@H](C)C[C@@H]2C(=O)O)C1 (some centres undefined) and answer again.
TRUE

Now consider COc1cc(F)c(C(C)C)cc1-c1ccc(C(F)(F)F)cc1CN1C(=O)O[C@H](c2cc(C(F)(F)F)cc(C(F)(F)F)c2)[C@@H]1C and answer again.
FALSE

Now consider CN(C)CCN(Cc1ccc(Cl)cc1)c1ccccn1 and answer again.
TRUE

Now consider Cc1cnc(-c2cc(N3CCN(C(=O)CCS(C)(=O)=O)CC3)ncc2Cl)c(C)c1 and answer again.
TRUE

Now consider NS(=O)(=O)c1ccc(Nc2nc(OCC3CCCCC3)c3[nH]cnc3n2)cc1 and answer again.
TRUE

Now consider N#Cc1ccc(Oc2ccc3c(c2)COB3O)cc1 and answer again.
TRUE

Now consider CCn1c(-c2nonc2N)nc2cncc(CNC3CCNCC3)c21 and answer again.
FALSE

Origin of the recorded values: PubChem BioAssay (NCATS)
